assay: Acute toxicity test (oral LD50, death rate for 14 days); details: mouse, in vivo, ddY-strain male mice
Quick list: LD50 at 336 h per entry.
Write the answer as a number in mg/kg, unit excluded.

Guide cases for LD50 at 336 h, answers given:
> print(dat)
                                   molecule  reading.unit  assay.result
1  CO[C@@H]1[C@H](O)[C@@H](CO)O[C@H]1n1cnc2c(NC3CCOc4ccccc43)ncnc21 (stereo partly shown)         mg/kg           250
2  CO[C@@H]1[C@H](O)[C@@H](CO)O[C@H]1n1cnc2c(NCc3cccc4ccccc34)ncnc21         mg/kg           230
3  CO[C@@H]1[C@H](O)[C@@H](CO)O[C@H]1n1cnc2c(NC3CCc4ccccc43)ncnc21 (stereo partly shown)         mg/kg           450

Moving on to the next molecule.
// LD50 at 336 h lookup, molecule = CO[C@@H]1[C@H](O)[C@@H](CO)O[C@H]1n1cnc2c(NC3CCCc4ccccc43)ncnc21 (stereo partly shown) , result: 230
